Source of measurements: patent US9447148B2

Can you tell me MC-1 Emax (average; cAMP HBL) for the items I'm about to list?
- Assayed system: hMCR-1 (Homo sapiens (Human), UniProt Q01726)
- Sequence (Q01726 whole entry): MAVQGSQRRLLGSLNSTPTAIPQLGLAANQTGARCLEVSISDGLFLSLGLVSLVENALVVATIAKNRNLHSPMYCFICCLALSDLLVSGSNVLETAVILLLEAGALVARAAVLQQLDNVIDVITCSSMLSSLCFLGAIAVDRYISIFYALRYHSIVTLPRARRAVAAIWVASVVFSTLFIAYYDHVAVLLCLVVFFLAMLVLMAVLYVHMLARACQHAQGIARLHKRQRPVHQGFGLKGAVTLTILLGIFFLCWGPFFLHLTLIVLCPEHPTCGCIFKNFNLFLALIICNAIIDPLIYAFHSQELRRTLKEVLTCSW
- Run description: Assay for agonist activity: intracellular cAMP accumulation in HBL human melanoma cells
- Type: cell-based
- Condition parameters: HBL cells, maximum efficacy compared to reference agonist NDP-α-MSH
Bridge positions count the residues as written; N and C are the ends. Square brackets hold non-standard residues; d marks the D form. Peptide text beside a SMILES is read from it. Nle = CCCC[C@H](N)C(=O)O; Dab = NCC[C@H](N)C(=O)O
Please reply with the bare figure in % ^ and do not write the unit itself.

Give the measured MC-1 Emax (average; cAMP HBL) of CCCC[C@H](NC(C)=O)C(=O)N[C@H]1CCC(=O)NCC[C@@H](C(=O)N[C@@H](Cc2c[nH]c3ccccc23)C(N)=O)NC(=O)[C@H](C)NC(=O)[C@@H](Cc2ccccc2)NC(=O)[C@H](Cc2c[nH]cn2)NC1=O [Example 9.48] (Ac-[Nle]EH[dF]A[Dab]W-NH2; lactam 2-6) .
72

Give the measured MC-1 Emax (average; cAMP HBL) of CCCC[C@H](NC(C)=O)C(=O)N[C@H]1CCC(=O)NCC[C@@H](C(=O)N[C@@H](Cc2c[nH]c3ccccc23)C(N)=O)NC(=O)[C@H](CCCNC(=N)N)NC(=O)[C@@H](Cc2ccccc2)NC(=O)[C@H](CCCN)NC1=O [Example 9.55] .
109

Give the measured MC-1 Emax (average; cAMP HBL) of CCCC[C@H](NC(C)=O)C(=O)N[C@H]1CCC(=O)NCC[C@@H](C(=O)N[C@@H](Cc2c[nH]c3ccccc23)C(N)=O)NC(=O)[C@H](CCCNC(=N)N)NC(=O)[C@@H](Cc2ccccc2)NC(=O)[C@H](CCN)NC1=O [Example 9.54] .
108

Give the measured MC-1 Emax (average; cAMP HBL) of CCCC[C@H](NC(C)=O)C(=O)N[C@H]1CCC(=O)NCC[C@@H](C(=O)N[C@@H](Cc2c[nH]c3ccccc23)C(N)=O)NC(=O)[C@H](CCCNC(=N)N)NC(=O)[C@@H](Cc2ccccc2)NC(=O)[C@H](C)NC1=O [Example 9.49] .
86

Give the measured MC-1 Emax (average; cAMP HBL) of CCCC[C@H](NC(C)=O)C(=O)N[C@H]1CCC(=O)NCC[C@@H](C(=O)N[C@@H](Cc2c[nH]c3ccccc23)C(N)=O)NC(=O)[C@H](CCCNC(=N)N)NC(=O)[C@@H](Cc2ccccc2)NC(=O)[C@H](CCCCN)NC1=O [Example 9.53] .
108
